PROTOCOL_DETAILS: Half life in dog
Format: ADME, Canis lupus familiaris
CONDITION_NOTES: in vivo
OBSERVED_PROPERTY: half-life

For CC(=O)N[C@@H]1CCC[C@H](C(=O)Nc2cc(-c3cnn4c3CC(C)(C)C4)c(Cl)cn2)C1 the molecule record lists half-life as < 1 h

====

SYSTEM_NAME: Cyclin-dependent kinase 1 (Homo sapiens, UniProt P06493)
Sequence (P06493 whole entry): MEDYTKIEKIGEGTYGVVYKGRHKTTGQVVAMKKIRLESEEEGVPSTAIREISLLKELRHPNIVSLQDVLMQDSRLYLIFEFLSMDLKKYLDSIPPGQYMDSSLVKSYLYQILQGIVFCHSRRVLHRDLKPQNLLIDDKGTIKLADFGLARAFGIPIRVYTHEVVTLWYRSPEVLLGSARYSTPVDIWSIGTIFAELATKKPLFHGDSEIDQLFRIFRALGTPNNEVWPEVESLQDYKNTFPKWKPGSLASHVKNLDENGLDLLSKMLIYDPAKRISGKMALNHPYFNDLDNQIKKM
PROTOCOL_DETAILS: Inhibition of CDK1 (unknown origin) using Ulight-labeled substrate by TR-FRET LANCE method
OBSERVED_PROPERTY: IC50

For COc1ccc(F)cc1-c1c(F)cnc2[nH]c(C3=CCN([C@H]4CC[C@H](C(=O)O)CC4)CC3)cc12 on Cyclin-dependent kinase 1 (Homo sapiens, UniProt P06493), measured IC50 was > 320 nM
